test system: Escherichia coli TOP10; experiment: shrunken log2 fold change of peptide-encoding DNA abundance (4.5 h post-induction vs induction); higher = less antimicrobial activity (less host growth inhibition); details: time post-induction: 4.5 h; library: site-saturation at positions 5, 18, 19, 20
Parameter: shrunken log2 fold change. Scope: all listed entries.

Enquiry: Which measured shrunken log2 fold change belongs to RRIRWRPPRLPRPRPRPGGGPRP , tested on Escherichia coli TOP10?
Return: 0.953

Enquiry: Subsequent entry: RRIRCRPPRLPRPRPRPCGYPRP
Return: -0.144

Enquiry: Subsequent entry: RRIRERPPRLPRPRPRPHVIPRP
Return: -0.133

Enquiry: Subsequent entry: RRIRFRPPRLPRPRPRPMVTPRP
Return: -0.138

Enquiry: Subsequent entry: RRIRRRPPRLPRPRPRPFCDPRP
Return: -0.0358

---

tested on: Escherichia coli TOP10; assay: shrunken log2 fold change of peptide-encoding DNA abundance (4.5 h post-induction vs induction); higher = less antimicrobial activity (less host growth inhibition); conditions: time post-induction: 4.5 h; library: site-saturation at positions 5, 18, 19, 20
Outcome: Met for shrunken log2 fold change of at least 0.05; Not met for anything lower.

# count of solved cases: 3
> print(dat)
          polymer.sequence  qualitative.label
1  RRIRNRPPRLPRPRPRPAFEPRP            Not met
2  RRIRHRPPRLPRPRPRPTHCPRP            Not met
3  RRIRGRPPRLPRPRPRPCKFPRP                Met

Enquiry: Given RRIRYRPPRLPRPRPRPREFPRP , state whether its shrunken log2 fold change is at least 0.05.
Return: Met

Enquiry: Subsequent entry: RRIRTRPPRLPRPRPRPCAQPRP
Return: Not met

Enquiry: Subsequent entry: RRIRYRPPRLPRPRPRPRGKPRP
Return: Met

Enquiry: Subsequent entry: RRIRMRPPRLPRPRPRPVIYPRP
Return: Not met

Enquiry: Subsequent entry: RRIRWRPPRLPRPRPRPQYEPRP
Return: Met

---

system: Escherichia coli TOP10; assay: shrunken log2 fold change of peptide-encoding DNA abundance (4.5 h post-induction vs induction); higher = less antimicrobial activity (less host growth inhibition); conditions: time post-induction: 4.5 h; library: site-saturation at positions 5, 18, 19, 20
Outcome: Met for shrunken log2 fold change of at least 0.08; Not met for anything lower.

# count of solved cases: 5
> print(dat)
          polymer.sequence  qualitative.label
1  RRIRLRPPRLPRPRPRPEMEPRP            Not met
2  RRIRKRPPRLPRPRPRPWRPPRP                Met
3  RRIRVRPPRLPRPRPRPYSIPRP            Not met
4  RRIRFRPPRLPRPRPRPCGPPRP                Met
5  RRIRCRPPRLPRPRPRPAWVPRP                Met

Enquiry: Given RRIRVRPPRLPRPRPRPFRRPRP , state whether its shrunken log2 fold change is at least 0.08.
Return: Not met

Enquiry: Subsequent entry: RRIRCRPPRLPRPRPRPVPFPRP
Return: Not met

Enquiry: Subsequent entry: RRIRCRPPRLPRPRPRPYLCPRP
Return: Not met

Enquiry: Subsequent entry: RRIRPRPPRLPRPRPRPAVLPRP
Return: Met

Enquiry: Subsequent entry: RRIRFRPPRLPRPRPRPWRAPRP
Return: Not met

Enquiry: Subsequent entry: RRIRQRPPRLPRPRPRPYRRPRP
Return: Not met

Enquiry: Subsequent entry: RRIRVRPPRLPRPRPRPDQDPRP
Return: Not met

Enquiry: Subsequent entry: RRIRVRPPRLPRPRPRPEWMPRP
Return: Met

Enquiry: Subsequent entry: RRIRQRPPRLPRPRPRPVMEPRP
Return: Not met

Enquiry: Subsequent entry: RRIRLRPPRLPRPRPRPQRLPRP
Return: Met

---

tested on: Escherichia coli TOP10; assay: shrunken log2 fold change of peptide-encoding DNA abundance (4.5 h post-induction vs induction); higher = less antimicrobial activity (less host growth inhibition); conditions: time post-induction: 4.5 h; library: site-saturation at positions 5, 18, 19, 20
reported-property: shrunken log2 fold change
No unit in the answer, only the number.

> print(dat)
          polymer.sequence          reported.property  numeric.result
1  RRIRFRPPRLPRPRPRPLCFPRP  shrunken log2 fold change          -0.211

Enquiry: Quick one: shrunken log2 fold change of RRIRLRPPRLPRPRPRPRMNPRP ?
Return: 0.179

---

Parameter: shrunken log2 fold change. Scope: all listed entries.
test system: Escherichia coli TOP10; experiment: shrunken log2 fold change of peptide-encoding DNA abundance (4.5 h post-induction vs induction); higher = less antimicrobial activity (less host growth inhibition); conditions: time post-induction: 4.5 h; library: site-saturation at positions 5, 18, 19, 20
No unit in the answer, only the number.

Use these answered entries as a reference point.
> print(dat)
           polymer.sequence          reported.property  numeric.result
 1  RRIRARPPRLPRPRPRPIYHPRP  shrunken log2 fold change          -0.359
 2  RRIRLRPPRLPRPRPRPQCRPRP  shrunken log2 fold change          0.0156
 3  RRIRDRPPRLPRPRPRPRSTPRP  shrunken log2 fold change        -0.00371
 4  RRIRDRPPRLPRPRPRPRHLPRP  shrunken log2 fold change          -0.199
 5  RRIRIRPPRLPRPRPRPNTHPRP  shrunken log2 fold change          -0.677
 6  RRIRNRPPRLPRPRPRPEAWPRP  shrunken log2 fold change         -0.0397
 7  RRIRKRPPRLPRPRPRPTIDPRP  shrunken log2 fold change           0.128
 8  RRIRERPPRLPRPRPRPRPDPRP  shrunken log2 fold change           0.205
 9  RRIRGRPPRLPRPRPRPGHDPRP  shrunken log2 fold change          0.0495
10  RRIRIRPPRLPRPRPRPGDYPRP  shrunken log2 fold change         -0.0189

Kindly review the next sequence as well.
Enquiry: Quick one: shrunken log2 fold change of RRIRVRPPRLPRPRPRPRHMPRP ?
Return: 0.152

---

test system: Escherichia coli TOP10; assay: shrunken log2 fold change of peptide-encoding DNA abundance (4.5 h post-induction vs induction); higher = less antimicrobial activity (less host growth inhibition); settings: time post-induction: 4.5 h; library: site-saturation at positions 5, 18, 19, 20;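 also: peptides expressed intracellularly from a pBAD plasmid library in pooled LB shake-flask culture, induced with 0.3% L-arabinose, DNA abundance read by NGS, three biological replicates, DESeq2 with apeglm shrinkage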
Outcome: True for shrunken log2 fold change of at least -0.001; False for anything lower.

# count of solved cases: 5
> print(dat)
          polymer.sequence  qualitative.label
1  RRIRYRPPRLPRPRPRPWHQPRP              False
2  RRIRERPPRLPRPRPRPDYFPRP              False
3  RRIRARPPRLPRPRPRPMDKPRP               True
4  RRIRWRPPRLPRPRPRPDADPRP               True
5  RRIRVRPPRLPRPRPRPVIKPRP              False

Enquiry: Given RRIRWRPPRLPRPRPRPRDPPRP , state whether its shrunken log2 fold change is at least -0.001.
Return: True

Enquiry: Subsequent entry: RRIRMRPPRLPRPRPRPNLAPRP
Return: True

Enquiry: Subsequent entry: RRIRVRPPRLPRPRPRPDAWPRP
Return: True

Enquiry: Subsequent entry: RRIRCRPPRLPRPRPRPWFLPRP
Return: False

Enquiry: Subsequent entry: RRIRVRPPRLPRPRPRPATWPRP
Return: True

Enquiry: Subsequent entry: RRIRQRPPRLPRPRPRPENNPRP
Return: False

Enquiry: Subsequent entry: RRIRRRPPRLPRPRPRPLTHPRP
Return: True

Enquiry: Subsequent entry: RRIRIRPPRLPRPRPRPRLLPRP
Return: False

Enquiry: Subsequent entry: RRIRPRPPRLPRPRPRPECYPRP
Return: True

Enquiry: Subsequent entry: RRIRHRPPRLPRPRPRPRYAPRP
Return: False

Enquiry: Subsequent entry: RRIRPRPPRLPRPRPRPSQQPRP
Return: True

Enquiry: Subsequent entry: RRIRPRPPRLPRPRPRPLHPPRP
Return: True

Enquiry: Subsequent entry: RRIRLRPPRLPRPRPRPNQTPRP
Return: False

Enquiry: Subsequent entry: RRIRIRPPRLPRPRPRPCDWPRP
Return: True

Enquiry: Subsequent entry: RRIRERPPRLPRPRPRPLSMPRP
Return: False

Enquiry: Subsequent entry: RRIRSRPPRLPRPRPRPNTVPRP
Return: False

Enquiry: Subsequent entry: RRIRNRPPRLPRPRPRPSSMPRP
Return: False

Enquiry: Subsequent entry: RRIRIRPPRLPRPRPRPLWMPRP
Return: False

Enquiry: Subsequent entry: RRIRIRPPRLPRPRPRPWFMPRP
Return: False

Enquiry: Subsequent entry: RRIRIRPPRLPRPRPRPMGTPRP
Return: False

Enquiry: Subsequent entry: RRIRRRPPRLPRPRPRPQEQPRP
Return: False

Enquiry: Subsequent entry: RRIRCRPPRLPRPRPRPPFSPRP
Return: True

Enquiry: Subsequent entry: RRIRDRPPRLPRPRPRPTIQPRP
Return: False

Enquiry: Subsequent entry: RRIRVRPPRLPRPRPRPFQQPRP
Return: False
